The origin of these recorded values is patent US10927123B2.

study_system: Beta-3 Adrenergic Receptor (Homo sapiens (Human))
protocol: HTRF cAMP antagonist assay (IC50 determination)
conditions: CHO-K1 cells stably expressing recombinant receptor; antagonism of isoproterenol at EC90; cAMP readout
metric_name: pIC50
Numbers only, as −log10 of the molar value.

Solved cases (5 shown):
>>> print(df.to_string())
                                   compound  metric_name  observed
0  CCn1cc(S(=O)(=O)N2CCC3(CC2)C[C@@H](NC[C@H](O)COc2cccc(S(=O)(=O)C(F)(F)CO)c2)CO3)c(=O)c2ccccc21 [Compound 298]        pIC50      7.08
1  Cc1cccc(-c2cccc(S(=O)(=O)N3CCC4(CC3)C[C@@H](NC[C@H](O)COc3cccc(S(=O)(=O)CCO)c3)CO4)c2)n1 [Compound 128]        pIC50      6.96
2  COCS(=O)(=O)c1cccc(OC[C@@H](O)CN[C@H]2COC3(CCN(S(=O)(=O)c4ccc5ncccc5c4)CC3)C2)c1 [Compound 131]        pIC50      7.62
3  COc1ccc(S(=O)(=O)N2CCC3(CC2)C[C@H](NC[C@H](O)COc2cccc(S(=O)(=O)C4(CO)CC4)c2)CO3)cc1Br [Compound 201]        pIC50      7.38
4  O=S(=O)(CCO)c1cccc(OC[C@@H](O)CN[C@H]2COC3(CCN(S(=O)(=O)c4ccc5cccnc5c4)CC3)C2)c1 [Compound 98]        pIC50      7.05

The recorded pIC50 for O=S(=O)(c1cccc(OC[C@@H](O)CNC2COC3(CCN(S(=O)(=O)c4ccc5ccccc5c4)CC3)C2)c1)C1COC1 (stereo partly drawn) [Compound 24] is 7.63

---

Provide the recorded pIC50 for the entries that follow.
study_system: Beta-3 Adrenergic Receptor (Homo sapiens (Human), UniProt P13945)
Sequence (P13945 whole entry, species assumed): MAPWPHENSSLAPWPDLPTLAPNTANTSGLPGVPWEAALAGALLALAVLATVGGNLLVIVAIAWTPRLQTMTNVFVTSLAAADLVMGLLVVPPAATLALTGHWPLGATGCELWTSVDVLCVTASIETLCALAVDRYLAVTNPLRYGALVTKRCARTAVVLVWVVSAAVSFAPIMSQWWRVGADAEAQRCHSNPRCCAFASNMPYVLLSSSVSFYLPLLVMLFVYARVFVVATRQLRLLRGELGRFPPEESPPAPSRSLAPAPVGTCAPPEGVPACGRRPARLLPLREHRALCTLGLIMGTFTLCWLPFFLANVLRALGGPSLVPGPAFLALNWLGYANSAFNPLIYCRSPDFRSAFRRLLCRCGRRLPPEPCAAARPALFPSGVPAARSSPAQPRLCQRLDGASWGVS
protocol: HTRF cAMP antagonist assay (IC50 determination)
conditions: CHO-K1 cells stably expressing recombinant receptor; antagonism of isoproterenol at EC90; cAMP readout
One number for each entry, as −log10 of the molar value.

Solved cases (4 shown):
                                   compound  observed
0  CS(=O)(=O)c1cccc(OC[C@@H](O)CNC2COC3(CCN(S(=O)(=O)c4cccc(C(F)(F)F)c4)CC3)C2)c1 (some centres unmarked)      7.37
1  O=S(=O)(c1cccc(OC[C@@H](O)CN[C@H]2COC3(CCN(S(=O)(=O)c4ccc5ncccc5c4)CC3)C2)c1)C1CC1      7.88
2  CCOc1ccc(-c2ccc(C(C)(C)CN)cc2)cc1S(=O)(=O)N1CCC2(CC1)C[C@@H](NC[C@H](O)COc1cccc(S(=O)(=O)C3(CO)CC3)c1)CO2      6.16
3  CS(=O)(=O)c1cccc(OC[C@@H](O)CNC2COC3(CCN(S(=O)(=O)c4ccc5c(c4)CCCC5)CC3)C2)c1 (some centres unmarked)      7.79

The recorded pIC50 for O=S(=O)(c1cccc(OC[C@@H](O)CN[C@H]2COC3(CCN(S(=O)(=O)c4cnc5ccc(F)cc5c4O)CC3)C2)c1)C1CC1 is 7.47

---

study_system: Beta-3 Adrenergic Receptor (Homo sapiens (Human), UniProt P13945)
protocol: HTRF cAMP antagonist assay (IC50 determination)
conditions: CHO-K1 cells stably expressing recombinant receptor; antagonism of isoproterenol at EC90; cAMP readout
metric_name: pIC50
Give bare numbers, as −log10 of the molar value.

                                 cpd_smiles  observed
0  O=S(=O)(c1cccc(-c2ccc(CNCC(F)(F)F)cc2)c1)N1CCC2(CC1)C[C@@H](NC[C@H](O)COc1cccc(S(=O)(=O)C3(CO)CC3)c1)CO2      6.01
1  O=S(=O)(c1cnc2c(c1)OCCO2)N1CCC2(CC1)C[C@@H](NC[C@H](O)COc1cccc(S(=O)(=O)C3(CO)CC3)c1)CO2      6.52
2  O=S(=O)(c1cccc(OC[C@@H](O)CN[C@H]2COC3(CCN(S(=O)(=O)c4cnc5c(F)cccc5c4O)CC3)C2)c1)C1CC1      7.45
3  CCOc1ccc(-c2ccc(CN)cc2)cc1S(=O)(=O)N1CCC2(CC1)C[C@H](NC[C@H](O)COc1cccc(S(=O)(=O)CC)c1)CO2      7.90
4  CN1CCOc2ncc(S(=O)(=O)N3CCC4(CC3)C[C@@H](NC[C@H](O)COc3cccc(S(=O)(=O)C5(CO)CC5)c3)CO4)cc21      7.32
5  CCS(=O)(=O)c1cccc(OC[C@@H](O)CN[C@@H]2COC3(CCN(S(=O)(=O)c4ccc5ccccc5c4)CC3)C2)c1      7.71

Could I get pIC50 for every one of these entries?
1. Cc1c(-c2ccc(CN)cc2)cccc1S(=O)(=O)N1CCC2(CC1)C[C@H](NC[C@H](O)COc1cccc(S(=O)(=O)C3(CO)CC3)c1)CO2
2. O=S(=O)(c1ccc2ncccc2c1)N1CCC2(CC1)C[C@@H](NC[C@H](O)COc1cccc(S(=O)(=O)C3(CO)CC3)c1)CO2
3. CCNCc1ccc(-c2cccc(S(=O)(=O)N3CCC4(CC3)C[C@@H](NC[C@H](O)COc3cccc(S(=O)(=O)C5(CO)CC5)c3)CO4)c2)cc1
4. CCn1cc(S(=O)(=O)N2CCC3(CC2)C[C@@H](NC[C@H](O)COc2cccc(S(=O)(=O)C4CC4)c2)CO3)c(=O)c2ccc(C)cc21
5. CCOc1ccc(-c2ccc(C(C)(C)CN)cc2)cc1S(=O)(=O)N1CCC2(CC1)C[C@H](NC[C@H](O)COc1cccc(S(=O)(=O)C3(CO)CC3)c1)CO2
6. CCOc1ccc(-c2ccc(CN)cc2)cc1S(=O)(=O)N1CCC2(CC1)C[C@H](NC[C@H](O)COc1cccc(S(=O)(=O)C(F)(F)CO)c1)CO2

1. 7.07
2. 7.27
3. 6.86
4. 7.02
5. 7.23
6. 7.81

---

study_system: Beta-3 Adrenergic Receptor (Homo sapiens (Human))
protocol: HTRF cAMP antagonist assay (IC50 determination)
conditions: CHO-K1 cells stably expressing recombinant receptor; antagonism of isoproterenol at EC90; cAMP readout
Procedure: HTRF cAMP assays were performed according to manufacturer's instructions (Cisbio, cAMP Dynamic 2 Assay Kit; #62AM4PEJ). CHO-K1 cells stably expressing recombinant receptor were harvested and suspended in warm PBS to make a 300,000 cells/mL stock. […] Compounds were dissolved and serially diluted (5-fold) in DMSO to generate a 10-point dose response stock. […] The EC90 for isoproterenol, a beta-adrenergic agonist, was determined in separate experiments using standard methods to measure agonist potencies. […]
pIC50: −log10 of the molar value.
pIC50 of 6 or higher: y. Under 6: n.

Please check the record CN1CCOc2ncc(S(=O)(=O)N3CCC4(CC3)C[C@@H](NC[C@H](O)COc3cccc(S(C)(=O)=O)c3)CO4)cc21 and state if its pIC50 is at or above 6.
y

Please check the record Cc1cccc(-c2cccc(S(=O)(=O)N3CCC4(CC3)C[C@H](NC[C@H](O)COc3cccc(S(=O)(=O)CCO)c3)CO4)c2)n1 and state if its pIC50 is at or above 6.
y

Please check the record Cc1ccnc(-c2cccc(S(=O)(=O)N3CCC4(CC3)C[C@@H](NC[C@H](O)COc3cccc(S(=O)(=O)CCO)c3)CO4)c2)c1 and state if its pIC50 is at or above 6.
y

Please check the record CCn1cc(S(=O)(=O)N2CCC3(CC2)C[C@@H](NC[C@@H](O)COc2cccc(S(C)(=O)=O)c2)CO3)c(=O)c2ccccc21 and state if its pIC50 is at or above 6.
n

Please check the record O=S(=O)(c1cccc(OC[C@@H](O)CN[C@H]2COC3(CCN(S(=O)(=O)c4cnc5cc(F)ccc5c4O)CC3)C2)c1)C1CC1 and state if its pIC50 is at or above 6.
y

Please check the record Cc1c(Br)cccc1S(=O)(=O)N1CCC2(CC1)C[C@@H](NC[C@H](O)COc1cccc(S(=O)(=O)C3(CO)CC3)c1)CO2 and state if its pIC50 is at or above 6.
y

---

study_system: Beta-3 Adrenergic Receptor (Homo sapiens (Human), UniProt P13945)
protocol: HTRF cAMP antagonist assay (IC50 determination)
conditions: CHO-K1 cells stably expressing recombinant receptor; antagonism of isoproterenol at EC90; cAMP readout
metric_name: pIC50
One number for each entry, as −log10 of the molar value.

Solved cases (6 shown):
compound	pIC50
O=S(=O)(CCO)c1cccc(OC[C@@H](O)CN[C@H]2COC3(CCN(S(=O)(=O)c4ccc(-c5ccccn5)cc4)CC3)C2)c1 [Compound 102]	6.94
O=S(=O)(CCO)c1cc(F)cc(OC[C@@H](O)CN[C@H]2COC3(CCN(S(=O)(=O)c4cnc5ccccc5c4)CC3)C2)c1 [Compound 248]	7.14
O=S(=O)(CC1CC1(F)F)c1cccc(OC[C@@H](O)CNC2COC3(CCN(S(=O)(=O)c4ccc5ccccc5c4)CC3)C2)c1 (stereo partly drawn) [Compound 17]	7.41
O=S(=O)(c1cccc(OC[C@@H](O)CN[C@H]2COC3(CCN(S(=O)(=O)c4cnc5c(c4)NCCO5)CC3)C2)c1)C1CC1 [Compound 303]	7.77
CCOc1ccc(S(=O)(=O)N2CCC3(CC2)C[C@H](NC[C@H](O)COc2cccc(S(=O)(=O)C4(CO)CC4)c2)CO3)cc1-c1ccc(CN)cc1 [Compound 237]	7.09
CS(=O)(=O)c1cccc(OC[C@@H](O)CNC2COC3(CCN(S(=O)(=O)c4ccc5[nH]ncc5c4)CC3)C2)c1 (stereo partly drawn) [Compound 77]	7.45

Could I get pIC50 for every one of these entries?
1. Cc1ccc(-c2cccc(S(=O)(=O)N3CCC4(CC3)C[C@@H](NC[C@H](O)COc3cccc(S(=O)(=O)C5(CO)CC5)c3)CO4)c2)cc1 [Compound 170]
2. CS(=O)(=O)c1cccc(OC[C@@H](O)CNC2COC3(CCN(S(=O)(=O)c4cccc(-c5cnn(C6CC6)c5)c4)CC3)C2)c1 (stereo partly drawn) [Compound 39]
3. CC(C)(CN)c1ccc(-c2cccc(S(=O)(=O)N3CCC4(CC3)C[C@H](NC[C@H](O)COc3cccc(S(=O)(=O)C5(CO)CC5)c3)CO4)c2)cc1 [Compound 180]
4. CN1CC(C)(C)Oc2nc(S(=O)(=O)N3CCC4(CC3)C[C@@H](NC[C@H](O)COc3cccc(S(=O)(=O)C5(CO)CC5)c3)CO4)ccc21 [Compound 288]

1. 6.38
2. 7.15
3. 7.51
4. 6.75

Could I get pIC50 for every one of these entries?
1. CCOc1ccc(-c2ccc(C3(N)CC3)cc2)cc1S(=O)(=O)N1CCC2(CC1)C[C@@H](NC[C@H](O)COc1cccc(S(=O)(=O)CC)c1)CO2 [Compound 257]
2. CC(C)CCS(=O)(=O)c1cccc(OC[C@@H](O)CNC2COC3(CCN(S(=O)(=O)c4ccc5ccccc5c4)CC3)C2)c1 (stereo partly drawn) [Compound 11]

1: 7.42; 2: 7.45
